Every entry's value here was drawn from the supplement of paper PMC8671470.

Test system: HL-60
Procedure details: cell viability (% survival relative to DMSO control); higher = less cytotoxic
Measurement conditions: 0.1 µM; 72 h; co-treatment: DMSO vehicle

| Molecule | cell viability |
| --- | --- |
| NCc1ccc(-c2cccnc2)s1 | 109% |
| CN(C)C(=N)NC(=N)N | 102% |
| Fc1ccc(CNc2ncnc3ccc(F)cc23)cc1 | 109% |
| CC(=O)N1CCN(c2ccc(OC[C@@H]3CO[C@@](Cn4ccnc4)(c4ccc(Cl)cc4Cl)O3)cc2)CC1 (racemic) | 104% |
| CN(C)CCNC(=O)c1cccn2c(=O)c3cc4ccccc4cc3nc12 | 102% |
| C#CCN[C@@H]1CCc2ccccc21 | 102% |
| NS(=O)(=O)c1ccc(S(=O)(=O)Nc2cccc3c(Cl)c[nH]c23)cc1 | 101% |
| CN(C)C(=O)n1nnnc1Cc1ccc(-c2ccccc2)cc1 | 101% |
| Cl.OC[C@H]1NC[C@H](O)[C@@H](O)[C@H]1O | 96.5% |

----------
Listing: cell viability of selected compounds
Tested on: MOLM-13
Procedure details: cell viability (% survival relative to DMSO control, bortezomib = 0%); higher = less cytotoxic
Measurement conditions: 1000 nM; 72 h

| Compound | cell viability |
| --- | --- |
| Cn1c2cc(S(C)=O)sc2c2cnn(Cc3cccc(N)c3)c(=O)c21 (centres undefined) | 123% |
| CCCCC/C=C\C/C=C\C/C=C\C/C=C\CCCC(=O)C(F)(F)F | 102% |
| COc1cc(/C=C/c2ccc(OC)cc2OC)cc(OC)c1 | 107% |
| CC(=O)N1CCN(c2ccc(OC[C@@H]3CO[C@@](Cn4ccnc4)(c4ccc(Cl)cc4Cl)O3)cc2)CC1 (racemic) | 104% |

----------
Test system: myeloid leukemia patient primary cells Pat.10
Procedure details: cell viability (% survival relative to DMSO control); higher = less cytotoxic
Measurement conditions: 1 nM; 72 h
Where a name gives a salt, the structure may show the parent alone.
Rule for this label: YES means cell viability is less than 70%; NO means cell viability is at least 70%.

| Molecule | Category |
| --- | --- |
| O=C(Cc1cccc(OC(F)(F)F)c1)Nc1ccc(CCCCc2nnc(NC(=O)Cc3ccccn3)s2)nn1 | YES |
| CN(C)CCNC(=O)c1cccn2c(=O)c3cc4ccccc4cc3nc12 | NO |
| Oc1ncc(F)c(O)n1 | NO |
| O=c1[nH]c(=O)n([C@H]2C[C@H](O)[C@@H](CO)O2)cc1I | NO |
| Clc1cc(Cl)c(OCC#CI)cc1Cl | YES |
| CCCCCCCCCCCCC/C=C/[C@@H](O)[C@H](CO)N(C)C | NO |
| O=C(/C=C/c1cccnc1)NCCCCC1CCN(C(=O)c2ccccc2)CC1 | YES |
| CC(C)(Cc1ccccc1)NCC(O)c1ccc(O)c(NS(C)(=O)=O)c1 (centres undefined) [Zinterol hydrochloride] | YES |

----------
Listing: cell viability of selected molecules
Tested on: THP-1
Procedure details: cell viability (% survival relative to DMSO control, bortezomib = 0%); higher = less cytotoxic
Measurement conditions: 10000 nM; 72 h
Parameter measured: cell viability (%)

| Molecule | Parameter measured | Result units | Assay result |
| --- | --- | --- | --- |
| CN(C)C(=N)NC(=N)N | cell viability | % | 94.4 |
| N#Cc1ccc(C2CCCc3cncn32)cc1 (stereo not given) | cell viability | % | 102 |
| CN1CC(=O)N2[C@H](c3ccc4c(c3)OCO4)c3[nH]c4ccccc4c3C[C@@H]2C1=O | cell viability | % | 96.6 |
| Cl.NC1=CCCN1Cc1nc(O)nc(O)c1Cl | cell viability | % | 101 |
| c1ccc2nc(-c3nnc4sc(-c5cnccn5)nn34)ccc2c1 | cell viability | % | 99.3 |
| O=c1[nH]c(=O)n([C@H]2C[C@H](O)[C@@H](CO)O2)cc1I | cell viability | % | 90 |
| CCCCC/C=C\C/C=C\C/C=C\C/C=C\CCCC(=O)C(F)(F)F | cell viability | % | 61.1 |
| OCCN1C[C@H](O)[C@@H](O)[C@H](O)[C@H]1CO | cell viability | % | 101 |
| O=C(Cc1cccc(OC(F)(F)F)c1)Nc1ccc(CCCCc2nnc(NC(=O)Cc3ccccn3)s2)nn1 | cell viability | % | 83.7 |
| COc1cc(C2Oc3cc(C4Oc5cc(O)cc(O)c5C(=O)C4O)ccc3OC2CO)ccc1O (stereo not given) | cell viability | % | 95.9 |
| NCc1ccc(S(N)(=O)=O)cc1 [4-Homosulfanilamide] | cell viability | % | 99.5 |
| Cc1nnc(-c2ccc(N3CCC(Oc4ccccc4C(F)(F)F)CC3)nn2)s1 | cell viability | % | 98.1 |
| c1ccc2c(c1)SCc1c-2[nH]c2ccccc12 | cell viability | % | 33.6 |
| O=C(CCl)N(CCCNC(=O)C(F)(F)F)c1ccc([N+](=O)[O-])cc1 | cell viability | % | -2.38 |
| N=C(N)c1ccc(N=NNc2ccc(C(=N)N)cc2)cc1 | cell viability | % | 86.3 |
